B1: library; numbered along this chain (parent)
chain: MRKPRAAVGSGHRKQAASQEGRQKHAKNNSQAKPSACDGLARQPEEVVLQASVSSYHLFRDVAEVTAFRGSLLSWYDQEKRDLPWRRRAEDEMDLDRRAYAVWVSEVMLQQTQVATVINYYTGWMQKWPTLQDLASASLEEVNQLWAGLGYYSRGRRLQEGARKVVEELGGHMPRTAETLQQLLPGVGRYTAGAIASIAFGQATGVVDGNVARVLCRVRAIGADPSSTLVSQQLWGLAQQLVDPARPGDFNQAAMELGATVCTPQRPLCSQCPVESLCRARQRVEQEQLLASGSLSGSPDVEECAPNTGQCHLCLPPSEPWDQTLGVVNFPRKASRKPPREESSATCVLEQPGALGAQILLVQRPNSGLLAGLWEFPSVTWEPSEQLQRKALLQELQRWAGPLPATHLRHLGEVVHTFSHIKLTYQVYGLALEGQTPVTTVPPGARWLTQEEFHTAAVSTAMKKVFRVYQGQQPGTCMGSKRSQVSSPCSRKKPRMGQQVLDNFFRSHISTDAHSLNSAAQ

# Variants of: B1
# Run description: 8OG:A repair function score (normalized; synonymous = 0, nonsense = -1) (normalized log-likelihood score); higher = more repair activity (WT-like);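 further: cells sorted at 72 h after reporter transfection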
# Stated conditions: with 8OG:A DNA repair reporter (GFP) in HEK-293 MUTYH KO cells
// reported 8OG:A repair function score per item
Just the number, please.

   mutations  value_observed
0      G434W          0.0509
1      E350F          -0.339
2      V427Q           -1.16
3      Q388N           0.244
4      D322C        -0.00563

// 8OG:A repair function score value for N329E : -0.365

// 8OG:A repair function score value for R175G : -0.166

// 8OG:A repair function score value for Y151W : -0.534

// 8OG:A repair function score value for R491E : 0.0286

// 8OG:A repair function score value for Q233A : -0.259

Data provenance is the supplement of paper PMC11908140.
